assay: P. falciparum blood-stage growth inhibition, late-stage follow-up, M18AAP inhibitor project, cell-based, radiolabel, 3D7, RBCs, Set2 (AID 720736); details: P. falciparum 3D7 in RBCs, 3H-hypoxanthine incorporation, 48 h; run 1; at 10 µM; stronger effect = higher value
Measured endpoint: growth inhibition (%)

>>> meas_value("COc1ccc(CCNC2CCN(Cc3ccccc3)CC2)cc1OC")
88
>>> meas_value("Oc1ccc(CCCNc2c3ccccc3nc3ccccc23)cc1O")
91

A: CCN(CCc1ccc(OC)c(OC)c1)c1c2ccccc2nc2ccccc12
B: Oc1ccc(CCNC2CCN(Cc3ccccc3)CC2)cc1O
C: Cc1cccc2c(NCCc3ccc(O)c(O)c3)ccnc12
Inquiry: List these items ordered by growth inhibition, big to small. Your answer should be the labels, listed in the requested order.
Reply text: B, C, A
(B: 90%, C: 56%, A: 18%)
